Assign pIC50 to each entry below.
Tested on: RPEMYC^H2B-GFP cells
measurement_description: Phenotypic screening assay (mitotic arrest, polyploidy)
Format: cell-based
experimental_parameters: 1 nM to 30 μM, read-out: Proliferative arrest (>50%)
pIC50: −log10 of the molar value.

Fill in pIC50 for COc1cc(Oc2ncnc3cc(OC)c(OC)cc23)cc(-n2ccnc2)c1 [Compound 79] tested with RPEMYC^H2B-GFP cells.
4.52 to 5.00

Fill in pIC50 for COC(=O)c1cc2c(Oc3cc(OC)cc(-n4cccn4)c3)ccnc2cc1OC [Compound 32] tested with RPEMYC^H2B-GFP cells.
6.00 to 9.00

Fill in pIC50 for COc1cc(OC)cc(Oc2ccnc3ccc(Br)cc23)c1 [Compound 48] tested with RPEMYC^H2B-GFP cells.
6.00 to 9.00

Fill in pIC50 for COc1cc(OC)cc(Oc2ccnc3cc(OC)c(C(N)=O)cc23)c1 [Compound 69] tested with RPEMYC^H2B-GFP cells.
6.00 to 9.00

Fill in pIC50 for CNC(=O)c1cc(OC)cc(Oc2ccnc3ccc(C(F)(F)F)cc23)c1 [Compound 70] tested with RPEMYC^H2B-GFP cells.
5.00 to 6.00

Origin of values: patent US20240239806A1
